biological target: recombinant 17bHSD13 (N2-K300) (Homo sapiens (Human), UniProt Q7Z5P4); assay: In Vitro 17bHSD13 Enzyme Assay; details: 80 nM 17bHSD13, 0.5 mM NAD, 20 μM Estradiol, 2.5 h; estradiol to estrone by LC-MS/MS
Sequence (Q7Z5P4 2-300): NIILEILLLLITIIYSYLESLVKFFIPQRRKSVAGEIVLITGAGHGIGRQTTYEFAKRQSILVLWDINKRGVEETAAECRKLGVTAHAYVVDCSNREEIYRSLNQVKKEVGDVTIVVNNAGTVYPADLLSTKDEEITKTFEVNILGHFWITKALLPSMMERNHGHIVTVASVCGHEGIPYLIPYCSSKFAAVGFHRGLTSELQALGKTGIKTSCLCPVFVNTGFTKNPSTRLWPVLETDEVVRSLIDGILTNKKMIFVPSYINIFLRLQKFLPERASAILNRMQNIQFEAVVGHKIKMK
I'd be grateful if you could share measured pIC50 for these entries.
Numbers only, as −log10 of the molar value.

These recorded examples may help you get a feel for the data.
INSERT INTO assay_data (compound, tgt, readout_label, value) VALUES
  ('C[C@@H]1CN(C(=O)c2noc(-c3cc(F)c(F)c(O)c3F)n2)C[C@H](C)O1', 'recombinant 17bHSD13 (N2-K300) (Homo sapiens (Human), UniProt Q7Z5P4)', 'pIC50', 6.55),
  ('Cn1nc(C2CC2)c2c1CCN(C(=O)c1noc(-c3cc(F)c(F)c(O)c3F)c1C#N)C2', 'recombinant 17bHSD13 (N2-K300) (Homo sapiens (Human), UniProt Q7Z5P4)', 'pIC50', 7.20),
  ('O=C(c1nnc(-c2ccc(F)c(O)c2)o1)N1CCOC2(CCC2)C1', 'recombinant 17bHSD13 (N2-K300) (Homo sapiens (Human), UniProt Q7Z5P4)', 'pIC50', 6.20),
  ('Cc1cccnc1CN(C(=O)c1noc(-c2cc(F)c(F)c(O)c2F)n1)C(C)C', 'recombinant 17bHSD13 (N2-K300) (Homo sapiens (Human), UniProt Q7Z5P4)', 'pIC50', 6.57),
  ('O=C(c1noc(-c2cc(F)c(F)c(O)c2F)n1)N1CCCCC1', 'recombinant 17bHSD13 (N2-K300) (Homo sapiens (Human), UniProt Q7Z5P4)', 'pIC50', 6.36);

# per-item lookup of pIC50; items listed below
1. O=C(c1nnc(-c2ccc(F)c(O)c2)o1)N1CC[C@H](c2ccccc2)C1
2. C[C@@H]1CN(C(=O)c2noc(-c3cc(F)c(F)c(O)c3F)n2)[C@H](C)CO1
3. Cn1nnc(-c2cnc(N3CCN(C(=O)c4noc(-c5cc(F)c(F)c(O)c5F)n4)CC3)c(Cl)c2)n1

1. 6.51
2. 6.30
3. 7.10

Report pIC50 for every entry below.
1. COc1ccccc1C1CCN(C(=O)c2noc(-c3cc(F)c(F)c(O)c3F)n2)C1 (stereo not shown)
2. O=C(c1noc(-c2cc(F)c(F)c(O)c2F)n1)N1CC2CC2(c2ccccc2)C1 (stereo not shown)
3. N#Cc1ccc2c(c1)CN(C(=O)c1noc(-c3cc(F)c(F)c(O)c3F)n1)C2
4. CN(C(=O)c1nnc(-c2ccc(F)c(O)c2)o1)c1nnnn1-c1ccccc1

1. 7.44
2. 7.12
3. 6.29
4. 6.78

Batch: pIC50 for all items listed.
1. N#Cc1c(C(=O)N2CCC(c3ccccc3)C2)noc1-c1ccc(F)c(O)c1 (stereo not shown)
2. N#CC1(c2ccccc2)CCN(C(=O)c2noc(-c3cc(F)c(F)c(O)c3F)n2)CC1
3. O=C(c1cc(-c2ccc(F)c(O)c2)on1)N1CC[C@H](c2ccccc2)C1
4. Cc1ccc2[nH]c(CN(C)C(=O)c3noc(-c4cc(F)c(F)c(O)c4F)n3)nc2c1

1. 7.40
2. 6.95
3. 7.30
4. 7.06

Lab note: each compound below needs its pIC50 filled in.
1. O=C(c1noc(-c2cc(C(F)(F)F)[nH]c(=O)c2)n1)N1CCC(c2ccccc2)C1 (stereo not shown)
2. COc1cccc(N2CCN(C(=O)c3noc(-c4cc(C(F)(F)F)[nH]c(=O)c4)n3)CC2)c1
3. O=C(c1noc(-c2cc(F)c(F)c(O)c2F)n1)N1CCO[C@H]2CCC[C@@H]21

1. 6.37
2. 6.32
3. 6.81

Data origin: patent US20250011311A1
